The following binders are listed with their measured CRE-luc EC50 values.
tgt: full-length human GLP1R on HEK293/CRE-Luc/hGLP1R cells (human, UniProt P43220 24-463)
assay procedure: cell-based or functional assay
Answer in nM, number only, no unit symbol.

Record excerpt, results attached:
binder	CRE-luc EC50 (nM)
REGN8070-M3190 (antibody, human IgG4 S228P, kappa, V domains shown, linker-payload M3190 (LP11) on Gln 3 of the N-terminal Q-tag LLQGSG, antibody-tethered drug conjugate; also called REGN8070 ATDC) VH: QVQLVESGGGVGQPGRSLRLSCAASGFTFSRNAMHWVRQAPGKGLEWVAVISYDGSNKHYADSVKGRFTISRDNSKNTLYLEMNSLRVEDTAVYYCAKGGIPFDYWGQGTLVTVSS VL: DIVMTQSPLSSPVTLGQPASISCRSSQSLVHFDGNTYLSWLHQRPGQPPRLLIYKISNRFSGVPDRFSGSGAGTDFTLKISRVEPEDVGVYYCMHATQFPYTFGQGTKLEIKR	0.0984
XXGTXTSDXX (CapAib-E*-G-T-F*-T-S-D-AA2-AA1: CapAib = 3-((2-(1H-imidazol-5-yl)ethyl)amino)-2,2-dimethyl-3-oxopropanoic acid; E* = (S)-2-amino-3-(2H-tetrazol-5-yl)propanoic acid; F* = (S)-2-amino-3-(2-fluorophenyl)-2-methylpropanoic acid; AA2 = biphenylalanine derivative carrying the amino-PEG8-triazole linker; AA1 = (S)-2-amino-5-(3,5-dimethylphenyl)pentanamide) [GLP1R agonist linker-payload LP11 (NH2-PEG8-triazole-P8)]	0.0369
REGN7988-M3190 (antibody, human IgG4 S228P, kappa, V domains shown, linker-payload M3190 (LP11) on Gln 3 of the N-terminal Q-tag LLQGSG) VH: QVQLVESGGGVVQPGRSLRLSCAASGFTFSGYGIHWVRQAPGKGLVWVAVIWYDGSFKYYADSVKGRFTISRDNSKNTLYLQMNSLRAEDTAVYYCARGDSSSSGRYYYYGMDVWGQGTTVTVSS VL: DIQMTQSPSSLSASVGDRVTITCRASQGIRNDLGWYQQKPGTAPKRLIFAASSLQSGVPSRFSGSGSGTEFTLTISSLQPEDFATYYCLQHNNYPPTFGGGTKVEIKR	0.107
REGN8072-M3190 (antibody, human IgG4 S228P, kappa, V domains shown, linker-payload M3190 (LP11) on Gln 3 of the N-terminal Q-tag LLQGSG, antibody-tethered drug conjugate; also called REGN8072 ATDC; anti-GLP1R mAb4-LP11) VH: QVQLVESGGGVVQPARSLRLSCAASGFAFSRSAMHWVRQAPGKGLEWVAVISYDGSNKYYTDSVKGRFTISRDNSKNTLYLQMNTLRAEDTALYYCAKMYTTMDSFDYWGQGTLVTVSS VL: DIQLTQSPSFLSASVGDRVTITCWASQGISSYLAWYQQKPGKAPKLLIYAASTLQSGVPSRFSGSGSGTEFTLTISSLQPEDFALYYCQQLNSYPRTFGQGTKVEIKR	0.0874

Moving on to another binder below.
query: Report CRE-luc EC50 for REGN9278-M3190 (antibody, human IgG4 S228P, kappa, V domains shown, linker-payload M3190 (LP11) on Gln 3 of the N-terminal Q-tag LLQGSG, antibody-tethered drug conjugate; also called REGN9278 ATDC) VH: QVQLQQWGAGLLKPSETLSLTCAVYGGSFSGYYWSWIRQPPGKGLEWIGEINHAGSTNYNPSLKSRITISVDTSKNQFSLKLSSVTAADTAVYYCARGWYYGSGSYHRNWFDPWGQGTLVTVSS VL: EIVLTQSPGTLSLSPGERATLSCRASQSVYYSYLAWYQQKPGQAPRLLIYGASNRATGIPDRFSGSGSGTDFTLTISRLEPEDFAVYYCQQYGNSPWTFGQGTKVEIKR please.
result: 0.376
